Each record here notes measured OD450 nm.
# TARGET_SYSTEM: T1, monkey GPC3-His protein (monkey)
# T1 construct: Bought protein; also called monkey GPC3 protein
# TEST_DETAILS: ELISA, monkey GPC3-His coated; antibody 0.004 nM
Lab note: jot the number down without any unit.

Guide cases for OD450 nm, answers given:
hAb001H1aL1b (antibody, human IgG1, V domains shown, Humanized F2.169.2, H1a+L1b) VH: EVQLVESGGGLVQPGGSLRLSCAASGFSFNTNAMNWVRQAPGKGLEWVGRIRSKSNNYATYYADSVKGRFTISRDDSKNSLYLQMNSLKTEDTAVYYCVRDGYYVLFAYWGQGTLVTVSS VL: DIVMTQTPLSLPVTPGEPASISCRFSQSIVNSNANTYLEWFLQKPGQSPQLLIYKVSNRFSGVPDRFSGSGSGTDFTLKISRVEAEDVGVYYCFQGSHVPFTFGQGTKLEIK	0.347
hAb001H1aL1 (antibody, human IgG1, V domains shown, Humanized F2.169.2, H1a+L1) VH: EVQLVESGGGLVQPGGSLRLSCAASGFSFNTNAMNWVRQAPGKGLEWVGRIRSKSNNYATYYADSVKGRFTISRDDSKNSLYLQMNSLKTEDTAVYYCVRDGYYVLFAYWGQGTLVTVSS VL: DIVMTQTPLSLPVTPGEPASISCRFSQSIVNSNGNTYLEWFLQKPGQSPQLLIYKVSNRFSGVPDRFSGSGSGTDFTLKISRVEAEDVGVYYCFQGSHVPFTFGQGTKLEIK	0.379
hAb001H2L1b (antibody, human IgG1, V domains shown, Humanized F2.169.2, H2+L1b) VH: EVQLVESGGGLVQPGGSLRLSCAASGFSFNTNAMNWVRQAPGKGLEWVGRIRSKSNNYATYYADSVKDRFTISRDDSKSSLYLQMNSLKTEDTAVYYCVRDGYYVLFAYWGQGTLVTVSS VL: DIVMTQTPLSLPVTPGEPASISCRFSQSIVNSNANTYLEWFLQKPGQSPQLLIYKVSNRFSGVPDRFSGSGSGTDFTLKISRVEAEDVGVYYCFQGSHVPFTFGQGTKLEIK	0.317
hAb006LH3L1b (antibody, human IgG1, V domains shown, Humanized F3.38.7, H3+L1b) VH: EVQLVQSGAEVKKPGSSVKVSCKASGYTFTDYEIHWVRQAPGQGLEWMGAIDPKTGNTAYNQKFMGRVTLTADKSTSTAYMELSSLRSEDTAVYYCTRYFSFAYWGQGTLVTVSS VL: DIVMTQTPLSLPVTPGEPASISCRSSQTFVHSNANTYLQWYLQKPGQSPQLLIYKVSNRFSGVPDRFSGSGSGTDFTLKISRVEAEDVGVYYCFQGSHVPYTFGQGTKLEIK	0.306

Request: Report OD450 nm for hAb001H1L1a (antibody, human IgG1, V domains shown, Humanized F2.169.2, H1+L1a) VH: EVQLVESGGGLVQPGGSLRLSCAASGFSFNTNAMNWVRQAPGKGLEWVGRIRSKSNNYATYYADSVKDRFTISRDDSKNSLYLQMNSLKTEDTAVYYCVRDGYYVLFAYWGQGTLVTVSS VL: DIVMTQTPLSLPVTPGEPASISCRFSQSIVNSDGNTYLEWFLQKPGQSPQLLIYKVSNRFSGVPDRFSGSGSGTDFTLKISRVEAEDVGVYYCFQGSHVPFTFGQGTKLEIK please.
Result: 0.211

Request: Can you check hAb003LH2L1b (antibody, human IgG1, V domains shown, Humanized F2.154.1, H2+L1b) VH: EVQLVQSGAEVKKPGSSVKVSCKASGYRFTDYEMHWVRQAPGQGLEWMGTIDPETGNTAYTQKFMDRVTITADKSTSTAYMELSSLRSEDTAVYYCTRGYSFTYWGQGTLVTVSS VL: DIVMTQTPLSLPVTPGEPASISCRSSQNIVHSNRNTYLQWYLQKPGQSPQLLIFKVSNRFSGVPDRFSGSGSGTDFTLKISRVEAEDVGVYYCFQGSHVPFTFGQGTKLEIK next?
Result: 0.386

Request: Can you check hAb001H2L1a (antibody, human IgG1, V domains shown, Humanized F2.169.2, H2+L1a) VH: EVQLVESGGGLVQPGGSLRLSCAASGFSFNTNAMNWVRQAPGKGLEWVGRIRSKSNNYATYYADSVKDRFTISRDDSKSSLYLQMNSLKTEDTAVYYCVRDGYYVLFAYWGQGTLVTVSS VL: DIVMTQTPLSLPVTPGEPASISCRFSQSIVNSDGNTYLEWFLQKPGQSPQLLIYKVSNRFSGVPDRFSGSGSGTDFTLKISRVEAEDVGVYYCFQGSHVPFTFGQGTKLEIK next?
Result: 0.094

Request: Can you check hAb007LH2L1b (antibody, human IgG1, V domains shown, Humanized F3.81.19, H2+L1b) VH: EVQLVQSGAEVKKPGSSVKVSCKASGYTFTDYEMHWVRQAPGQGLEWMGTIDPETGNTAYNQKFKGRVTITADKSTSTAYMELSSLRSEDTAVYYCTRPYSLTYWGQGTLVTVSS VL: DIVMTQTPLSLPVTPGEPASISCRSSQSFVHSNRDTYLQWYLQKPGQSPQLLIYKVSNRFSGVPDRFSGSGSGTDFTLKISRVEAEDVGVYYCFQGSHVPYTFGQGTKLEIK next?
Result: 0.127

Request: Can you check hAb001H1L1 (antibody, human IgG1, V domains shown, Humanized F2.169.2, H1+L1) VH: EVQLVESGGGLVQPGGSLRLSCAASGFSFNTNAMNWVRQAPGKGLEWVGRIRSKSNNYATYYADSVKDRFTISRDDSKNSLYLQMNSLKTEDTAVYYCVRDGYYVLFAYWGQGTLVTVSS VL: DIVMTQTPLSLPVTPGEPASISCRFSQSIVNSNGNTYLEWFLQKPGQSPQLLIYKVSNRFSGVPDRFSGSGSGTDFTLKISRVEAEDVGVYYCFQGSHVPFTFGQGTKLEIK next?
Result: 0.373
